- Test system: BE
- ASSAY_TEXT: Cytotoxicity against NQO1 deficient human BE cells after 3 to 5 days by MTT assay
- Type: functional, cell-based
For each record, write down the corresponding IC50.
Give bare numbers, in µM.

Examples from the recorded data:
NC1=CC(=O)c2ccc(-c3nc(C(=O)NCCO)cc4c3[nH]c3ccccc34)nc2C1=O; 1.1
COC(=O)c1nc(-c2ccc3c(n2)C(=O)C(N)=CC3=O)c2[nH]c3ccc(O)cc3c2c1C; 14

Q: Can you look up the measured IC50 of NC(=O)c1cc2c([nH]c3ccccc32)c(-c2ccc3c(n2)C(=O)C(NC(=O)CCl)=CC3=O)n1 for me?
A: 12

----------
For each record, write down the corresponding IC50.
- Test system: BE
- ASSAY_TEXT: Cytotoxicity against NQO1 deficient human BE cells after 3 to 5 days by MTT assay
- Format: functional, cell-based
Give bare numbers, in µM.

Examples from the recorded data:
CC(=O)NC1=CC(=O)c2ccc(-c3nc(C(=O)N4CCCC4)cc4c3[nH]c3ccccc34)nc2C1=O; 13
CCOC(=O)c1cc2c([nH]c3ccccc32)c(-c2ccc3c(n2)C(=O)C(NC(C)=O)=CC3=O)n1; 13
COC(=O)c1cc2c([nH]c3ccccc32)c(-c2ccc3c(n2)C(=O)C(N)=CC3=O)n1; 45
CCCCOC(=O)c1cc2c([nH]c3ccccc32)c(-c2ccc3c(n2)C(=O)C(NC(=O)CCC(=O)O)=CC3=O)n1; 12
CCCOC(=O)c1cc2c([nH]c3ccccc32)c(-c2ccc3c(n2)C(=O)C(NC(C)=O)=CC3=O)n1; 3.2

List IC50 for every entry below, keeping the order given.
1. COC(=O)c1cc2c([nH]c3ccccc32)c(-c2ccc3c(n2)C(=O)C(NC=O)=CC3=O)n1
2. NC1=CC(=O)c2ccc(-c3nc(C(=O)N4CCOCC4)cc4c3[nH]c3ccccc34)nc2C1=O
3. CCC(C)OC(=O)c1cc2c([nH]c3ccccc32)c(-c2ccc3c(n2)C(=O)C(NC(C)=O)=CC3=O)n1 (configuration not stated)
4. O=C(CCl)NC1=CC(=O)c2ccc(-c3nc(C(=O)N4CCCC4)cc4c3[nH]c3ccccc34)nc2C1=O
5. CC(=O)NC1=CC(=O)c2ccc(-c3nc(C(=O)N4CCN(Cc5ccccc5)CC4)cc4c3[nH]c3ccccc34)nc2C1=O
6. CCOC(=O)c1cc2c([nH]c3ccc(O)cc32)c(-c2ccc3c(n2)C(=O)C(NC(C)=O)=CC3=O)n1

A:
[14, 18, 33, 8, 6.5, 4]

----------
For each record, write down the corresponding log10 of Activity.
- SUBJECT_OF_TEST: NAD(P)H dehydrogenase [quinone] 1 (Homo sapiens)
- ASSAY_TEXT: Activity of human NQO1 assessed as initial rate of compound reduction per mg of protein at 25 uM in presence of NADH by cytochrome c reduction assay
Field: value | Transform: log10 | Quantity: Activity | Unit: µmol/min

Examples from the recorded data:
CC(=O)NC1=CC(=O)c2ccc(-c3nc(C(=O)N4CCCC4)cc4c3[nH]c3ccccc34)nc2C1=O; 1.63
COC(=O)c1nc(-c2ccc3c(n2)C(=O)C(N)=CC3=O)c2[nH]c3ccc(O)cc3c2c1C; 1.49
CC(=O)NC1=CC(=O)c2ccc(-c3nc(C(=O)NCCO)cc4c3[nH]c3ccccc34)nc2C1=O; 0.34
CCCCOC(=O)c1cc2c([nH]c3ccccc32)c(-c2ccc3c(n2)C(=O)C(NC(=O)CCC(=O)O)=CC3=O)n1; 0.72
COC(=O)c1cc2c([nH]c3ccccc32)c(-c2ccc3c(n2)C(=O)C(NC(=O)C(C)C)=CC3=O)n1; -1.40

List log10 of Activity for every entry below, keeping the order given.
1. CC(=O)NC1=CC(=O)c2ccc(-c3nc(C(=O)N4CCN(Cc5ccccc5)CC4)cc4c3[nH]c3ccccc34)nc2C1=O
2. COC(=O)c1nc(-c2ccc3c(n2)C(=O)C(NC(=O)c2ccco2)=CC3=O)c2[nH]c3ccccc3c2c1C
3. NC(=O)c1cc2c([nH]c3ccccc32)c(-c2ccc3c(n2)C(=O)C(NC(=O)CCl)=CC3=O)n1
4. COC(=O)c1cc2c([nH]c3ccccc32)c(-c2ccc3c(n2)C(=O)C(N)=CC3=O)n1
5. CCOC(=O)c1cc2c([nH]c3ccc(O)cc32)c(-c2ccc3c(n2)C(=O)C(NC(C)=O)=CC3=O)n1
6. CCC(C)OC(=O)c1cc2c([nH]c3ccccc32)c(-c2ccc3c(n2)C(=O)C(NC(C)=O)=CC3=O)n1 (configuration not stated)

A:
1: 0.94; 2: 0.76; 3: 1.11; 4: 1.45; 5: 1.32; 6: 0.59

List log10 of Activity for every entry below, keeping the order given.
1. COC(=O)c1cc2c([nH]c3ccccc32)c(-c2ccc3c(n2)C(=O)C(NC=O)=CC3=O)n1
2. NC1=CC(=O)c2ccc(-c3nc(C(=O)N4CCOCC4)cc4c3[nH]c3ccccc34)nc2C1=O
3. NC1=CC(=O)c2ccc(-c3nc(C(=O)N4CCCC4)cc4c3[nH]c3ccccc34)nc2C1=O
4. O=C(CCl)NC1=CC(=O)c2ccc(-c3nc(C(=O)N4CCCC4)cc4c3[nH]c3ccccc34)nc2C1=O
5. CCOC(=O)c1cc2c([nH]c3ccccc32)c(-c2ccc3c(n2)C(=O)C(N)=C(Cl)C3=O)n1
6. CCOC(=O)c1cc2c([nH]c3ccccc32)c(-c2ccc3c(n2)C(=O)C(NC(C)=O)=CC3=O)n1

A:
1.30
2.01
1.54
1.53
0.84
0.56
